Target: IDH2 R140Q (Homo sapiens, UniProt P48735, R140Q)
Settings: 10 μM compound; NADH 0.5 mM; αKG 10 mM; enzyme 7.5 μg/ml; 37° C.
MEASURE: Z-Score, Screen #2
Response field accepts a number only; no unit should be typed.

So what does the record say about Z-Score, Screen #2 for CC(=O)O[C@@H]1C[C@H]2C(C)(C)C(=O)C=C[C@]2(C)[C@H]2CC[C@]3(C)C(=CC(=O)O[C@H]3c3ccoc3)[C@@]21C [Deoxygedunin] ?
7.554

So what does the record say about Z-Score, Screen #2 for COC1=C(OC)C(=O)C(CCCCCCCCCCO)=C(C)C1=O [Idebenone] ?
8.499

So what does the record say about Z-Score, Screen #2 for O=c1c(O)c(-c2ccc(O)c(O)c2)oc2c(O)c(O)cc(O)c12 [Gossypetin] ?
13.35

So what does the record say about Z-Score, Screen #2 for CC(=O)O[C@@H]1C[C@H]2C(C)(C)C(=O)CC[C@]2(C)[C@H]2CC[C@@]3(C)[C@H](c4ccoc4)OC(=O)[C@H]4O[C@]43[C@@]21C [Dihydrogedunin] ?
4.452

* * *

Molecular target: IDH2 R140Q (Homo sapiens, UniProt P48735, R140Q)
Sequence (P48735 40-452 R140Q): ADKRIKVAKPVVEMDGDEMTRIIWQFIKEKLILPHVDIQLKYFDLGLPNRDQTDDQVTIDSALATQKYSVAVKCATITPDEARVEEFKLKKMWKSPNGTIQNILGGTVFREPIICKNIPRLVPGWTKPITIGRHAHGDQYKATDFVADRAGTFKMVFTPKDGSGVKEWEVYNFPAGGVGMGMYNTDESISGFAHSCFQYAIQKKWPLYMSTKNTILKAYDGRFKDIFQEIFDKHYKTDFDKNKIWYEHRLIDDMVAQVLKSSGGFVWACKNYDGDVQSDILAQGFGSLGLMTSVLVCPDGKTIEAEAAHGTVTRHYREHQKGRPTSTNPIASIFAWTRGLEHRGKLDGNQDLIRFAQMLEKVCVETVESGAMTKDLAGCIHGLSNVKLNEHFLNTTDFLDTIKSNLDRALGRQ
Conditions: 10 μM compound; NADH 0.5 mM; αKG 10 mM; enzyme 7.5 μg/ml; 37° C.
MEASURE: Z-Score, Screen #1
Response field accepts a number only; no unit should be typed.

So what does the record say about Z-Score, Screen #1 for CC(=O)O[C@@H]1C[C@H]2C(C)(C)C(=O)CC[C@]2(C)[C@H]2CC[C@@]3(C)[C@H](c4ccoc4)OC(=O)[C@H]4O[C@]43[C@@]21C [Dihydrogedunin] ?
9.578

So what does the record say about Z-Score, Screen #1 for O=c1c(O)c(-c2ccc(O)c(O)c2)oc2c(O)c(O)cc(O)c12 ?
9.982

So what does the record say about Z-Score, Screen #1 for COC1=C(OC)C(=O)C(CCCCCCCCCCO)=C(C)C1=O ?
11.33

So what does the record say about Z-Score, Screen #1 for CC(=O)O[C@@H]1C[C@H]2C(C)(C)C(=O)C=C[C@]2(C)[C@H]2CC[C@]3(C)C(=CC(=O)O[C@H]3c3ccoc3)[C@@]21C ?
7.959
